assay: in vitro; conditions: rat, gh3-tre-luc cells, AC50 (uM) modified / 1000
The following compounds are listed with their measured CC50 at 24 h values.

{"COMPOUND": "C=CC(=C)CCC=C(C)C", "CC50 at 24 h": "> 90 µM"}
{"COMPOUND": "S=C(S)NCCNC(=S)S [Nabam-sodium]", "CC50 at 24 h": "> 90 µM"}
{"COMPOUND": "CCOC(=O)/C=C(C)/C=C/C=C(C)/C=C/c1c(C)cc(OC)c(C)c1C [Etretinate]", "CC50 at 24 h": "> 50 µM"}
{"COMPOUND": "c1coc(CNc2ncnc3[nH]cnc23)c1", "CC50 at 24 h": "> 90 µM"}
{"COMPOUND": "COC(=O)c1ccccc1S(=O)(=O)NC(=O)N(C)c1nc(C)nc(OC)n1", "CC50 at 24 h": "> 100 µM"}
{"COMPOUND": "O=Cc1ccccc1[N+](=O)[O-]", "CC50 at 24 h": "> 90 µM"}
{"COMPOUND": "CCNc1ccccc1", "CC50 at 24 h": "> 90 µM"}
{"COMPOUND": "C=CCCCCCCCCC(=O)OC [Methyl 10-undecenoate]", "CC50 at 24 h": "> 50 µM"}
{"COMPOUND": "C=C(C)C(=O)OCCN(CC)CC [2-(Diethylamino)ethyl methacrylate]", "CC50 at 24 h": "> 90 µM"}
{"COMPOUND": "O=C1CCCCCCCCCCC(=O)OCCO1", "CC50 at 24 h": "> 90 µM"}

====

test system: GH3-TRE-Luc cell line; conditions: read-out: AC50 (uM) modified / 1000; Tox21_110001=Tox21_111032; viability, 1 nM T3 present, 24 h

{"COMPOUND": "Nc1ncn([C@@H]2O[C@H](CO)[C@@H](O)[C@H]2O)c(=O)n1 [5-Azacytidine]", "CC50": "5.77 µM"}

====

system: GH3-TRE-Luc cell line; conditions: read-out: AC50 (uM) modified / 1000; Tox21_110001=Tox21_300407; viability, 1 nM T3 present, 24 h

{"COMPOUND": "O=S(=O)(O)c1ccc(N=Nc2c(O)ccc3cc(S(=O)(=O)O)ccc23)cc1 [FD&C Yellow 6]", "QUANTITY UNIT": "µM", "CC50": 65.1}

====

assay: in vitro; settings: rat, gh3-tre-luc cells, AC50 (uM) modified / 1000, Tox21_110001=Tox21_200121; viability, 1 nM T3 present, 24 h

{"SUBSTANCE SMILES": "Brc1cccc(-c2ccccc2)c1", "CC50 at 24 h": "> 90 µM"}

====

The following compounds are listed with their measured CC50 at 24 h values.
test: in vitro; details: rat, gh3-tre-luc cells, AC50 (uM) modified / 1000

{"SUBSTANCE SMILES": "O=C1NCN(c2ccccc2)C12CCN(CCCC(c1ccc(F)cc1)c1ccc(F)cc1)CC2", "CC50 at 24 h": "4.02 µM"}
{"SUBSTANCE SMILES": "COC(=O)CCS", "CC50 at 24 h": "> 90 µM"}
{"SUBSTANCE SMILES": "O=C(CC(=O)c1ccccc1)c1ccccc1", "CC50 at 24 h": "> 100 µM"}
{"SUBSTANCE SMILES": "CCCCCCCCCCCCCCCCOP(=O)([O-])OCC[N+](C)(C)C", "CC50 at 24 h": "> 50 µM"}
{"SUBSTANCE SMILES": "Nc1cc(Cl)cc(S(=O)(=O)O)c1O", "CC50 at 24 h": "> 90 µM"}
